Ki for UniProtKB Q07817 - collated from the literature.
Sequence (Q07817 whole entry): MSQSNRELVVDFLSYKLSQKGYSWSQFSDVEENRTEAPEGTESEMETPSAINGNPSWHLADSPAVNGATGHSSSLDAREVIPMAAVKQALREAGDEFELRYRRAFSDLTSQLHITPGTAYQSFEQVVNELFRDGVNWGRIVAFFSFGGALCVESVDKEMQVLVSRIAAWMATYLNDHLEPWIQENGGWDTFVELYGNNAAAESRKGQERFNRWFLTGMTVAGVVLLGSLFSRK

Field: example entries. Status: answers known.
1. COC(=O)CNC(=O)c1ccc(C(=O)N(C)C)cc1 ... > 30 µM
2. CC(C)C[C@H](NC(=O)c1ccc(C(=O)N(CC(C)C)C(C(=O)O)C(C)C)cc1OC(C)C)C(=O)O (stereo not given in full) ... > 30 µM
3. O=Cc1ccc(-c2ccc(C[C@@H]3NC(=O)N([C@@H](Cc4ccccc4)C(=O)NS(=O)(=O)c4ccc(Cl)c([N+](=O)[O-])c4)C3=O)cc2)cc1 ... > 50 µM
4. COC1(Cc2ccccc2C)CCN(c2ccc(C(=O)NS(=O)(=O)c3ccc(N[C@H](CCN(C)C)CSc4ccccc4)c([N+](=O)[O-])c3)cc2)CC1 ... < 0.0005 µM

Now, please, on to the next compound.
Tell me the measured Ki of CN(C)CC[C@H](CSc1ccccc1)Nc1ccc(S(=O)(=O)NC(=O)c2ccc(N3CCN(C(=O)c4ccccc4)CC3)cc2)cc1[N+](=O)[O-] , please.
< 0.001 µM
